- System: HCT-15 colon
- test description: NCI-60 one-dose screen, 48 h
- stated conditions: 10 µM unless noted
The panel holds about 83,000 compounds, 20% with a hit somewhere; the sample as a whole holds those more often. Activity calls are given as the source filed them. Rule for the calls: active = growth percent below 10; inactive = the rest.
Output constraint: value belongs to active, inactive

Could you check what this test reported for COc1ccc(N=Nc2c(N)nn3c(-c4ccc(F)cc4)ccnc23)cc1 ?
inactive

Could you check what this test reported for O=C1Nc2ccc(F)cc2/C1=C/C(=O)c1cc2ccccc2oc1=O ?
inactive

Could you check what this test reported for Nc1nn2c(-c3cc4cc(Br)ccc4oc3=O)ccnc2c1N=Nc1ccccc1 ?
inactive

Could you check what this test reported for COC(=O)c1ccc(-c2c(-c3ccccc3)c(F)c3oc(C(=O)OC)c(N)c3c2-c2ccccc2)cc1 ?
inactive

Could you check what this test reported for O=C1NC(=S)/C(=C/c2cn(-c3ccccc3)nc2-c2ccccc2)S1 ?
inactive

Could you check what this test reported for CN1C(=O)/C(=C\C(=O)c2cc3ccccc3oc2=O)c2ccccc21 ?
inactive

Could you check what this test reported for Cc1[nH]nc2ccc3nc(-c4cn[nH]c4C(F)(F)F)c4c(c3c12)CCCC4 ?
active

Could you check what this test reported for CC1=C(C(=O)Nc2ccccc2)C(c2cccc(Cl)c2Cl)n2c(nc3ccccc32)N1 (stereo not given) ?
inactive

Could you check what this test reported for c1n[nH]cc1-c1nc2ccc3cn[nH]c3c2c2c1CCCC2 ?
inactive

Could you check what this test reported for O=C(CSc1nnc(-c2ccc(-c3nc4ccccc4[nH]3)cc2)o1)Nc1ccc(Br)cc1 ?
inactive
